QUANTITY_KIND: melting point (°C)
One number for each entry, in °C.

COMPOUND	melting point, °C
CCOC(=O)C(CC)Sc1nc2c(c(=O)[nH]c(=O)n2C)n1Cc1ccc([N+](=O)[O-])o1 (racemic)	172
CCCCn1c(SC(CC)C(=O)OCC)nc2c1c(=O)[nH]c(=O)n2C (racemic)	104
C#CCn1c(=O)c2c(nc(SC(CC)C(=O)OCC)n2Cc2cccc(Br)c2)n(C)c1=O (racemic)	97

Shift focus to the following entry.
Form field: reported melting point of CCOC(=O)C(CC)Sc1nc2c(c(=O)[nH]c(=O)n2C)n1Cc1cccc(N)c1 (racemic)
107
